- test: Pharmacokinetic measurements in rats (intravenous and intra-tracheal dosing)
- Type: in vivo
- experimental-context: male, CD, lung/plasma, other: intra-tracheal; rat, i.t. dosing, 0.1 h; read-out: lung/plasma conc ratio at time(h)
Lab note: anything with Kp at 0.1 h at or over 200 counts as True; the rest go in False.

                                   compound  category_label
0  COC(=O)c1ccc2c(c1)NC(=O)/C2=C(\Nc1ccc(C(=O)NOCCN(C)C)cc1)c1ccccc1 [Example 3]           False
1  COC(=O)c1ccc2c(c1)NC(=O)/C2=C(\Nc1ccc(S(=O)(=O)NOCCN(C)C)cc1)c1ccccc1 [Example 15]           False
2  COC(=O)c1cc2c(cc1C)/C(=C(/Nc1ccc(C(=O)NOCCN3CCN(CCO)CC3)cc1)c1ccccc1)C(=O)N2 [Example 7]            True
3  COC(=O)c1cc2c(cc1C)/C(=C(/Nc1ccc(C(=O)NOCCN(C)C)c(C)c1)c1ccccc1)C(=O)N2 [Example 5]           False
4  COC(=O)c1ccc2c(c1)NC(=O)/C2=C(\Nc1ccc(C(=O)NOCCN2CCN(C)CC2)cc1)c1ccccc1 [Example 4]            True
5  COC(=O)c1cc2c(cc1C)/C(=C(/Nc1ccc(C(=O)NOCCN3CCN(C)CC3)cc1)c1ccccc1)C(=O)N2 [Example 6]            True
